B1: PRKX (parent)
chain: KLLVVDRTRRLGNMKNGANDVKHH

- Variants of: B1
- assay: protein stability index of a GFP-peptide fusion (GPS, HEK-293T) (PSI 1-6); higher = more stable;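 note: lentivirally expressed fusions sorted by FACS into six bins by GFP to DsRed ratio, PSI derived from sequencing read proportions per bin multiplied by bin number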
- condition.summary: c terminus: a fixed tail appended
Reported protein stability index values for the following variants.
The reply should be a number, written without any unit.

Query (variant): KLLVVDRTRRLGNMKNGANDDKHH ; field requested: protein stability index
3.54

Query (variant): KLLVVDRTRRLGNMKNGANIVKHH ; field requested: protein stability index
2.09

Query (variant): KLLVVDRTRRLGNMKNGANDVPHH ; field requested: protein stability index
3.02

Query (variant): KLLVVDRTRYLGNMKNGANDVKHH ; field requested: protein stability index
2.72

Query (variant): KLLVVDRTRRLGVMKNGANDVKHH ; field requested: protein stability index
3.02

Query (variant): KLLVVDRTRRLGNMKNGANDVKAH ; field requested: protein stability index
3.1

Query (variant): KCLVVDRTRRLGNMKNGANDVKHH ; field requested: protein stability index
3.57

Query (variant): KLLVVDRTRRLGNMKTGANDVKHH ; field requested: protein stability index
3.25

Query (variant): KLLVVDRTRWLGNMKNGANDVKHH ; field requested: protein stability index
2.8
